B1: STX5 (parent)
chain: RSEFTLMAKRIGKDLSNTFAKLEK

Variants of: B1
Experiment: protein stability index of a GFP-peptide fusion (GPS, HEK-293T) (PSI 1-6); higher = more stable;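 note: lentivirally expressed fusions sorted by FACS into six bins by GFP to DsRed ratio, PSI derived from sequencing read proportions per bin multiplied by bin number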
Settings: c terminus: a fixed tail appended
Reported protein stability index values are given for each entry in this list.
observation_type: protein stability index

[[record]]
variant_description = "M7W"
reported_result = 3.31

[[record]]
variant_description = "I11E"
reported_result = 3.9

[[record]]
variant_description = "S16F"
reported_result = 4.43

[[record]]
variant_description = "T5P"
reported_result = 2.69

[[record]]
variant_description = "T5E"
reported_result = 1.35

[[record]]
variant_description = "N17F"
reported_result = 2.34

[[record]]
variant_description = "F4K"
reported_result = 3.62

[[record]]
variant_description = "S16D"
reported_result = 2.45

[[record]]
variant_description = "K24L"
reported_result = 2.38

[[record]]
variant_description = "I11D"
reported_result = 3.84

[[record]]
variant_description = "T18G"
reported_result = 3.21

[[record]]
variant_description = "M7Q"
reported_result = 3.21

[[record]]
variant_description = "K13F"
reported_result = 3.26

[[record]]
variant_description = "E23W"
reported_result = 2.37

[[record]]
variant_description = "A8E"
reported_result = 2.87

[[record]]
variant_description = "K13R"
reported_result = 2.33

[[record]]
variant_description = "A8T"
reported_result = 1.54

[[record]]
variant_description = "F4H"
reported_result = 3.31

[[record]]
variant_description = "G12M"
reported_result = 2.58

[[record]]
variant_description = "I11L"
reported_result = 1.57

[[record]]
variant_description = "R10Q"
reported_result = 1.05

[[record]]
variant_description = "S16L"
reported_result = 2.89

[[record]]
variant_description = "T18A"
reported_result = 2.31

[[record]]
variant_description = "F19Y"
reported_result = 2.38

[[record]]
variant_description = "F4E"
reported_result = 4.58

[[record]]
variant_description = "I11M"
reported_result = 1.65

[[record]]
variant_description = "I11N"
reported_result = 4.29

[[record]]
variant_description = "A8G"
reported_result = 2.49

[[record]]
variant_description = "L6C"
reported_result = 2.21

[[record]]
variant_description = "I11H"
reported_result = 3.46

[[record]]
variant_description = "R1K"
reported_result = 2.08

[[record]]
variant_description = "S16C"
reported_result = 1.65

[[record]]
variant_description = "E23F"
reported_result = 2.65

[[record]]
variant_description = "S16P"
reported_result = 2.46

[[record]]
variant_description = "L6N"
reported_result = 2.06

[[record]]
variant_description = "E3M"
reported_result = 2.25

[[record]]
variant_description = "A8R"
reported_result = 2.79

[[record]]
variant_description = "K9N"
reported_result = 2.63

[[record]]
variant_description = "L15K"
reported_result = 3.24

[[record]]
variant_description = "K9Q"
reported_result = 2.54

[[record]]
variant_description = "F19N"
reported_result = 3.42

[[record]]
variant_description = "G12K"
reported_result = 2.79

[[record]]
variant_description = "I11A"
reported_result = 2.77

[[record]]
variant_description = "E23S"
reported_result = 2.18

[[record]]
variant_description = "L22Y"
reported_result = 1.5

[[record]]
variant_description = "G12C"
reported_result = 2.2

